Reference source: ChEMBL document CHEMBL1148838

System: Staphylococcus aureus
Experiment: Antibacterial activity against rifamycin-resistant Staphylococcus aureus CB370 with rpoB His481Tyr mutation
Assay type: functional
A collection of molecules and their measured MIC

Field: example entries. Status: answers known.
molecule | assay.result
CO[C@H]1/C=C/O[C@@]2(C)Oc3c(C)c(O)c4c(c3C2=O)C2=NC3(CCN(C)CC3)CNC2=C(NC(=O)/C(C)=C\C=C\[C@H](C)[C@H](O)[C@@H](C)[C@@H](O)[C@@H](C)[C@H](OC(C)=O)[C@@H]1C)C4=O | > 62.5 µg/mL
CO[C@H]1/C=C/O[C@@]2(C)Oc3c(C)c(O)c4c(c3C2=O)C2=NC3(CCN(CC(C)C)C3)CNC2=C(NC(=O)/C(C)=C\C=C\[C@H](C)[C@H](O)[C@@H](C)[C@@H](O)[C@@H](C)[C@H](OC(C)=O)[C@@H]1C)C4=O (some centres not stated) | 31.3 µg/mL

Data request, read-out MIC, for CO[C@H]1/C=C/O[C@@]2(C)Oc3c(C)c(O)c4c(c3C2=O)C2=NC3(CCN(Cc5cnc6ccccc6c5)CC3)CNC2=C(NC(=O)/C(C)=C\C=C\[C@H](C)[C@H](O)[C@@H](C)[C@@H](O)[C@@H](C)[C@H](OC(C)=O)[C@@H]1C)C4=O 15.6 µg/mL

Data request, read-out MIC, for CO[C@H]1/C=C/O[C@@]2(C)Oc3c(C)c(O)c4c(c3C2=O)C2=NC3(CCN(C(=O)OC(C)(C)C)C3)CNC2=C(NC(=O)/C(C)=C\C=C\[C@H](C)[C@H](O)[C@@H](C)[C@@H](O)[C@@H](C)[C@H](OC(C)=O)[C@@H]1C)C4=O (some centres not stated) > 62.5 µg/mL

Data request, read-out MIC, for CO[C@H]1/C=C/O[C@@]2(C)Oc3c(C)c(O)c4c(c3C2=O)C2=NC3(CCN(C)C3)CNC2=C(NC(=O)/C(C)=C\C=C\[C@H](C)[C@H](O)[C@@H](C)[C@@H](O)[C@@H](C)[C@H](OC(C)=O)[C@@H]1C)C4=O (some centres not stated) > 62.5 µg/mL

----------
Tested on: Staphylococcus aureus
Test: Antibacterial activity against Staphylococcus aureus ATCC 6538 induced-septicemia in sc dosed mouse
Format: functional
Details: ATCC 6538, sc
measurement.kind: ED50 (mg/kg)
// note: answer is a bare numeric in mg/kg

smiles.data | measurement.target | unit.of.measure | ED50
CO[C@H]1/C=C/O[C@@]2(C)Oc3c(C)c(O)c4c(c3C2=O)C2=NC3(CCN(CC(C)C)CC3)CNC2=C(NC(=O)/C(C)=C\C=C\[C@H](C)[C@H](O)[C@@H](C)[C@@H](O)[C@@H](C)[C@H](OC(C)=O)[C@@H]1C)C4=O | Staphylococcus aureus | mg/kg | 0.6
CO[C@H]1/C=C/O[C@@]2(C)Oc3c(C)c(O)c4c(c3C2=O)C2=NC3(CCN(Cc5cnc6ccccc6c5)CC3)CNC2=C(NC(=O)/C(C)=C\C=C\[C@H](C)[C@H](O)[C@@H](C)[C@@H](O)[C@@H](C)[C@H](OC(C)=O)[C@@H]1C)C4=O | Staphylococcus aureus | mg/kg | 0.6

Please examine the following record next.
Can you look up ED50 on Staphylococcus aureus for CO[C@H]1/C=C/O[C@@]2(C)Oc3c(C)c(O)c4c(c3C2=O)C2=NC3(CCN(C)CC3)CNC2=C(NC(=O)/C(C)=C\C=C\[C@H](C)[C@H](O)[C@@H](C)[C@@H](O)[C@@H](C)[C@H](OC(C)=O)[C@@H]1C)C4=O ? 0.3

----------
System: Staphylococcus aureus
Assay: Antibacterial activity against Staphylococcus aureus ATCC 6538 induced-septicemia in po dosed mouse
Assay type: functional
Conditions: ATCC 6538, po
measurement.kind: ED50 (mg/kg)
// note: answer is a bare numeric in mg/kg

smiles.data | unit.of.measure | ED50
CO[C@H]1/C=C/O[C@@]2(C)Oc3c(C)c(O)c4c(c3C2=O)C2=NC3(CCN(CC(C)C)CC3)NC2=C(NC(=O)/C(C)=C\C=C\[C@H](C)[C@H](O)[C@@H](C)[C@@H](O)[C@@H](C)[C@H](OC(C)=O)[C@@H]1C)C4=O | mg/kg | 0.6

Please examine the following record next.
Data request, read-out ED50, for CO[C@H]1/C=C/O[C@@]2(C)Oc3c(C)c(O)c4c(c3C2=O)C2=NC3(CCN(Cc5cnc6ccccc6c5)CC3)CNC2=C(NC(=O)/C(C)=C\C=C\[C@H](C)[C@H](O)[C@@H](C)[C@@H](O)[C@@H](C)[C@H](OC(C)=O)[C@@H]1C)C4=O 5

----------
Test system: Staphylococcus aureus
Test: Antibacterial activity against intermediate rifamycin-resistant Staphylococcus aureus CB372 with rpoB Asp471Tyr mutation
Format: functional
Lab note: anything with MIC below 8 µg/mL is marked Yes; values at 8 µg/mL or higher are marked No.

compound | group
CO[C@H]1/C=C/O[C@@]2(C)Oc3c(C)c(O)c4c(c3C2=O)C2=NC3(CCN(CC(C)C)C3)CNC2=C(NC(=O)/C(C)=C\C=C\[C@H](C)[C@H](O)[C@@H](C)[C@@H](O)[C@@H](C)[C@H](OC(C)=O)[C@@H]1C)C4=O (some centres not stated) | No
CO[C@H]1/C=C/O[C@@]2(C)Oc3c(C)c(O)c4c(c3C2=O)C2=NC3(CCN(Cc5cnc6ccccc6c5)CC3)CNC2=C(NC(=O)/C(C)=C\C=C\[C@H](C)[C@H](O)[C@@H](C)[C@@H](O)[C@@H](C)[C@H](OC(C)=O)[C@@H]1C)C4=O | Yes
CO[C@H]1/C=C/O[C@@]2(C)Oc3c(C)c(O)c4c(c3C2=O)C2=NC3(CCN(Cc5ccccc5)CC3)CNC2=C(NC(=O)/C(C)=C\C=C\[C@H](C)[C@H](O)[C@@H](C)[C@@H](O)[C@@H](C)[C@H](OC(C)=O)[C@@H]1C)C4=O | Yes
CO[C@H]1/C=C/O[C@@]2(C)Oc3c(C)c(O)c4c(c3C2=O)C2=NC3(CCN(Cc5ccccc5)C3)CNC2=C(NC(=O)/C(C)=C\C=C\[C@H](C)[C@H](O)[C@@H](C)[C@@H](O)[C@@H](C)[C@H](OC(C)=O)[C@@H]1C)C4=O (some centres not stated) | Yes
CO[C@H]1/C=C/O[C@@]2(C)Oc3c(C)c(O)c4c(c3C2=O)C2=NC3(CCN(C)CC3)CNC2=C(NC(=O)/C(C)=C\C=C\[C@H](C)[C@H](O)[C@@H](C)[C@@H](O)[C@@H](C)[C@H](OC(C)=O)[C@@H]1C)C4=O | Yes
C=CCN1CCC2(CC1)CNC1=C3NC(=O)/C(C)=C\C=C\[C@H](C)[C@H](O)[C@@H](C)[C@@H](O)[C@@H](C)[C@H](OC(C)=O)[C@H](C)[C@@H](OC)/C=C/O[C@@]4(C)Oc5c(C)c(O)c(c(c5C4=O)C1=N2)C3=O | No
CO[C@H]1/C=C/O[C@@]2(C)Oc3c(C)c(O)c4c(c3C2=O)C2=NC3(CCN(CC(C)C)CC3)NC2=C(NC(=O)/C(C)=C\C=C\[C@H](C)[C@H](O)[C@@H](C)[C@@H](O)[C@@H](C)[C@H](OC(C)=O)[C@@H]1C)C4=O | No

Okay, now this compound:
Hello, I'm reviewing records and need to know if MIC of CO[C@H]1/C=C/O[C@@]2(C)Oc3c(C)c(O)c4c(c3C2=O)C2=NC3(CCN(C)C3)CNC2=C(NC(=O)/C(C)=C\C=C\[C@H](C)[C@H](O)[C@@H](C)[C@@H](O)[C@@H](C)[C@H](OC(C)=O)[C@@H]1C)C4=O (some centres not stated) is below 8 µg/mL. Could you check? Yes

----------
System: Staphylococcus aureus
Assay: Antibacterial activity against rifamycin-resistant Staphylococcus aureus CB370 with rpoB His481Tyr mutation
Type: functional
measurement.kind: MIC

Field: example entries. Status: answers known.
compound | MIC
CO[C@H]1/C=C/O[C@@]2(C)Oc3c(C)c(O)c4c(c3C2=O)C2=NC3(CCN(CC(C)C)CC3)CNC2=C(NC(=O)/C(C)=C\C=C\[C@H](C)[C@H](O)[C@@H](C)[C@@H](O)[C@@H](C)[C@H](OC(C)=O)[C@@H]1C)C4=O | > 62.5 µg/mL
CO[C@H]1/C=C/O[C@@]2(C)Oc3c(C)c(O)c4c(c3C2=O)C2=NC3(CCN(Cc5cnc6ccccc6c5)C3)CNC2=C(NC(=O)/C(C)=C\C=C\[C@H](C)[C@H](O)[C@@H](C)[C@@H](O)[C@@H](C)[C@H](OC(C)=O)[C@@H]1C)C4=O (some centres not stated) | > 62.5 µg/mL
CO[C@H]1/C=C/O[C@@]2(C)Oc3c(C)c(O)c4c(c3C2=O)C2=NC3(CCN(CC(C)C)CC3)NC2=C(NC(=O)/C(C)=C\C=C\[C@H](C)[C@H](O)[C@@H](C)[C@@H](O)[C@@H](C)[C@H](OC(C)=O)[C@@H]1C)C4=O | > 62.5 µg/mL
C=CCN1CCC2(CC1)CNC1=C3NC(=O)/C(C)=C\C=C\[C@H](C)[C@H](O)[C@@H](C)[C@@H](O)[C@@H](C)[C@H](OC(C)=O)[C@H](C)[C@@H](OC)/C=C/O[C@@]4(C)Oc5c(C)c(O)c(c(c5C4=O)C1=N2)C3=O | > 62.5 µg/mL
CO[C@H]1/C=C/O[C@@]2(C)Oc3c(C)c(O)c4c(c3C2=O)C2=NC3(CCN(Cc5ccccc5)CC3)CNC2=C(NC(=O)/C(C)=C\C=C\[C@H](C)[C@H](O)[C@@H](C)[C@@H](O)[C@@H](C)[C@H](OC(C)=O)[C@@H]1C)C4=O | 32 µg/mL

Data request, read-out MIC, for CO[C@H]1/C=C/O[C@@]2(C)Oc3c(C)c(O)c4c(c3C2=O)C2=NC3(CCN(C(=O)OC(C)(C)C)CC3)CNC2=C(NC(=O)/C(C)=C\C=C\[C@H](C)[C@H](O)[C@@H](C)[C@@H](O)[C@@H](C)[C@H](OC(C)=O)[C@@H]1C)C4=O > 62.5 µg/mL

Data request, read-out MIC, for CO[C@H]1/C=C/O[C@@]2(C)Oc3c(C)c(O)c4c(c3C2=O)C2=NC3(CCN(Cc5ccccc5)C3)CNC2=C(NC(=O)/C(C)=C\C=C\[C@H](C)[C@H](O)[C@@H](C)[C@@H](O)[C@@H](C)[C@H](OC(C)=O)[C@@H]1C)C4=O (some centres not stated) > 62.5 µg/mL
